Every entry's value here was drawn from patent US6525001B1.

- Test system: bedstraw (Galium aparine)
- procedure_summary: Test B pre-/postemergence
- Format: in vivo
- experimental_conditions: Rate 125 g/ha, Preemergence
For each record, write down the corresponding Plant response rating, Bedstraw.

Which Plant response rating, Bedstraw is reported for this compound? Cc1cnc(-n2cnc(C(F)(F)F)c2)nc1C(=O)c1cccc(C(F)(F)F)c1
4

# input compound: Cc1cnc(-n2cnc(C(F)(F)F)n2)nc1Cn1ccc(C(F)(F)F)n1 ; wanted: its Plant response rating, Bedstraw
10

What does the record list as Plant response rating, Bedstraw for Cc1cnc(-n2ccc(C(F)(F)F)n2)nc1Cn1ccc(C(F)(F)F)n1 ?
8

What measured Plant response rating, Bedstraw goes with Cc1cnc(-n2cnc(C(F)(F)F)n2)nc1C(=O)c1cccc(OC(F)(F)F)c1 ?
8

----------
Provide the reported Plant response rating, Wild oats of each item.
- Test system: wild oat (Avena fatua)
- procedure_summary: Test B pre-/postemergence
- Format: in vivo
- experimental_conditions: Rate 125 g/ha, Postemergence

Quick one: Plant response rating, Wild oats of Cc1cnc(-c2ccc(C(F)(F)F)cc2)nc1C(C#N)c1cccc(C(F)(F)F)c1 (racemic) ?
4

// returns reported Plant response rating, Wild oats for input Cc1cnc(-c2cccc(C(F)(F)F)c2)nc1Cc1cccc(C(F)(F)F)c1
3

Looking for the measured Plant response rating, Wild oats of Cc1cnc(-c2ccc(C(F)(F)F)cc2)nc1Cc1cccc(C(F)(F)F)c1 , can you help?
7

Endpoint output: Plant response rating, Wild oats of Cc1cnc(-c2ccc(C(F)(F)F)cc2)nc1Cn1cnc(C(F)(F)F)c1 . Value?
2

# query: Plant response rating, Wild oats of entry Cc1cnc(-n2ccc(C(F)(F)F)n2)nc1Cc1cccc(C(F)(F)F)c1
3

Report Plant response rating, Wild oats for Cc1cnc(-c2ccc(OC(F)(F)F)cc2)nc1Cc1cccc(C(F)(F)F)c1 please.
0

I would be grateful if you could share the reported Plant response rating, Wild oats for COC(=O)C(c1cccc(C(F)(F)F)c1)c1nc(-c2ccc(C(F)(F)F)cc2)ncc1C (racemic) .
5

----------
- Tested on: wheat (Triticum aestivum)
- procedure_summary: Test B pre-/postemergence
- Assay type: in vivo
- experimental_conditions: Rate 62 g/ha, Postemergence
quantity_kind: Plant response rating, Wheat
Respond with the number and no other words.

Which Plant response rating, Wheat is reported for this compound? COc1cnc(-c2ccc(C(F)(F)F)cc2)nc1Cc1cccc(C(F)(F)F)c1 [Compound 23]
3

# input compound: Cc1cnc(-c2ccc(C(F)(F)F)cc2)nc1Cn1cnc(C(F)(F)F)c1 [Compound 10] ; wanted: its Plant response rating, Wheat
2

Returns the measured Plant response rating, Wheat for the input compound. Input: Cc1cnc(-c2ccc(C(F)(F)F)cc2)nc1Cn1cnc(C(F)(F)F)n1 [Compound 11]
2

Need Plant response rating, Wheat, item Cc1cnc(-c2ccc(Cl)cc2)nc1Cn1ccc(C(F)(F)F)n1 [Compound 6]
1

----------
- System: arrowleaf sida (Sida rhombifolia)
- procedure_summary: Test C
- Format: in vivo
- Design: key: 0 was no effect; 100 was complete control
- experimental_conditions: PREEMERGENCE, Rate 70 g/ha
quantity_kind: Plant response rating, Arrowleaf sida

Suppose we examine the compound Cc1cnc(-n2ccc(C(F)(F)F)n2)nc1Cn1ccc(C(F)(F)F)n1 ; what Plant response rating, Arrowleaf sida value has been reported?
100

Which Plant response rating, Arrowleaf sida is reported for this compound? Cc1cnc(-c2ccc(C(F)(F)F)cc2)nc1Cn1ccc(C(F)(F)F)n1
95

Which Plant response rating, Arrowleaf sida reading was recorded for the compound Cc1cnc(-n2ccc(C(F)(F)F)n2)nc1C(=O)c1cccc(OC(F)(F)F)c1 ?
5

What Plant response rating, Arrowleaf sida value was documented for this compound, Cc1cnc(-c2ccc(C(F)(F)F)cc2)nc1Cc1cccc(C(F)(F)F)c1 ?
95

Fill in the blank: the reported Plant response rating, Arrowleaf sida of Cc1cnc(-c2ccc(C(F)(F)F)cc2)nc1Cc1cccc(OC(F)(F)F)c1 is ____.
85

----------
Please go through the items and note down their Plant response rating, Crabgrass.
- System: crabgrass (Digitaria sanguinalis)
- procedure_summary: Test B pre-/postemergence
- Format: in vivo
- experimental_conditions: Rate 250 g/ha, Postemergence
- Method: […] At the same time, these crop and weed species were also treated with postemergence applications of test chemicals formulated in the same manner. […] Treated plants and controls were maintained in a greenhouse for twelve to sixteen days, after which all species were compared to controls and visually evaluated. […]
Reply: number alone, nothing else.

Could you share which Plant response rating, Crabgrass value was measured for Cc1cnc(-c2ccc(C(F)(F)F)cc2)nc1C(C)c1cccc(C(F)(F)F)c1 (racemic) ?
2

For Cc1cnc(-c2ccccc2F)nc1Cc1cccc(C#N)c1 , what is its reported Plant response rating, Crabgrass?
1

Fill in the blank: the reported Plant response rating, Crabgrass of Cc1cnc(-n2ccc(C(F)(F)F)n2)nc1C(=O)c1ccc(C(F)(F)F)cc1 is ____.
1

# lookup: Plant response rating, Crabgrass of Cc1cnc(-c2cccc(C(F)(F)F)c2)nc1Cc1cccc(C#N)c1
1

Reported Plant response rating, Crabgrass, molecule CCc1cnc(-n2ccc(C(F)(F)F)n2)nc1C(=O)c1cccc(C#N)c1 : ____
8

Plant response rating, Crabgrass lookup needed for Cc1cnc(-n2ccc(C(F)(F)F)n2)nc1Cc1cccc(C(F)(F)F)c1 , thanks.
9

Find the recorded Plant response rating, Crabgrass belonging to CCc1cnc(-c2ccc(C(F)(F)F)cc2)nc1Cc1cccc(C(F)(F)F)c1 and report it.
9

Given Cc1cnc(-c2ccc(C(F)(F)F)cc2)nc1Cn1cc(I)cn1 , state its recorded Plant response rating, Crabgrass.
3

Which measured Plant response rating, Crabgrass value corresponds to Cc1cnc(-c2ccc(C(F)(F)F)cc2)nc1Cn1cnc(C(F)(F)F)c1 ?
4

Return reported Plant response rating, Crabgrass; argument: Cc1cnc(-n2cnc(C(F)(F)F)n2)nc1C(=O)c1cccc(OC(F)(F)F)c1
9

Reported Plant response rating, Crabgrass for Cc1cnc(-n2cnc(C(F)(F)F)n2)nc1Cn1ccc(C(F)(F)F)n1 : what is it?
10

----------
- Test system: guineagrass (Panicum maximum)
- procedure_summary: Test E pre-/postemergence/post directed
- Format: in vivo
- experimental_conditions: PREEMERGENCE, Rate 64 g/ha
Give Plant response rating, Guineagrass for every item shown.
Number only, no unit.

Which Plant response rating, Guineagrass is reported for this molecule? Cc1cnc(-n2cnc(C(F)(F)F)c2)nc1Cc1cccc(C(F)(F)F)c1 [Compound 44]
80

// query Plant response rating, Guineagrass value for entry Cc1cnc(-n2ccc(C(F)(F)F)n2)nc1Cc1cccc(OC(F)(F)F)c1 [Compound 42]
95

Plant response rating, Guineagrass lookup needed for Cc1cnc(-c2ccc(C(F)(F)F)cc2)nc1Cc1cccc(OC(F)(F)F)c1 [Compound 15] , thanks.
100

Request the reported Plant response rating, Guineagrass associated with Cc1cnc(-n2ccc(C(F)(F)F)n2)nc1Cn1ccc(C(F)(F)F)n1 [Compound 52]
80

----------
- Test system: bedstraw (Galium aparine)
- procedure_summary: Test B pre-/postemergence
- Type: in vivo
- Set-up: key: 0 is no effect; 10 is complete control
- experimental_conditions: Rate 62 g/ha, Postemergence
- Experimental: […] At the same time, these crop and weed species were also treated with postemergence applications of test chemicals formulated in the same manner. […] Treated plants and controls were maintained in a greenhouse for twelve to sixteen days, after which all species were compared to controls and visually evaluated. […]
quantity_kind: Plant response rating, Bedstraw

Provide value of Plant response rating, Bedstraw for this record tested with bedstraw (Galium aparine): Cc1cnc(-c2ccc(C(F)(F)F)cc2)nc1Cn1ccc(C(F)(F)F)n1
10

What is its Plant response rating, Bedstraw for bedstraw (Galium aparine)? Entry: Cc1cnc(-c2ccc(F)c(Cl)c2)nc1Cc1cccc(C#N)c1
4

bedstraw (Galium aparine) / Plant response rating, Bedstraw / Cc1cnc(-c2ccc(C#N)cc2)nc1Cc1cccc(C(F)(F)F)c1 : value?
1

Give the reported Plant response rating, Bedstraw for Cc1cnc(-c2ccc(Cl)cc2)nc1Cn1ccc(C(F)(F)F)n1 (system: bedstraw (Galium aparine)).
5

Tell me reported Plant response rating, Bedstraw for CCc1cnc(-c2ccc(C(F)(F)F)cc2)nc1Cc1cccc(OC(F)(F)F)c1 , tested with bedstraw (Galium aparine).
9

Give bedstraw (Galium aparine) Plant response rating, Bedstraw for Cc1cnc(-c2ccc(Cl)cc2)nc1Cc1cccc(C#N)c1
9

# returns recorded Plant response rating, Bedstraw (system: bedstraw (Galium aparine)) for Cc1cnc(-c2ccc(Cl)c(Cl)c2)nc1Cc1cccc(C#N)c1
7

API: value(readout= Plant response rating, Bedstraw, system= bedstraw (Galium aparine), query= COC(=O)C(c1cccc(C(F)(F)F)c1)c1nc(-c2ccc(C(F)(F)F)cc2)ncc1C (racemic) )
7

Please tell me: Plant response rating, Bedstraw of Cc1cnc(-n2cnc(C(F)(F)F)n2)nc1Cn1ccc(C(F)(F)F)n1 , system bedstraw (Galium aparine)?
9

----------
Please provide measured Plant response rating, Rape for the entries that follow.
- Test system: rape (Brassica napus)
- procedure_summary: Test B pre-/postemergence
- Format: in vivo
- Set-up: key: 0 is no effect; 10 is complete control
- experimental_conditions: Rate 250 g/ha, Preemergence
- Procedure: […] At the same time, these crop and weed species were also treated with postemergence applications of test chemicals formulated in the same manner. […] Treated plants and controls were maintained in a greenhouse for twelve to sixteen days, after which all species were compared to controls and visually evaluated. […]
Field format: numeric only.

// lookup Plant response rating, Rape for Cc1cnc(-c2ccc(C(F)(F)F)cc2)nc1C(=O)c1ccc(C(F)(F)F)cc1
0

Given the compound Cc1cnc(-c2ccc(C(F)(F)F)cc2)nc1Cn1nc(C(F)(F)F)cc1C , what is its reported Plant response rating, Rape?
9

Value lookup for Plant response rating, Rape; key = Cc1cnc(-n2ccc(C(F)(F)F)n2)nc1C(=O)c1cccc(OC(F)(F)F)c1
4

Plant response rating, Rape for O=C(c1cccc(C(F)(F)F)c1)c1ccnc(-n2ccc(C(F)(F)F)n2)n1 ?
0
